assay: Evaluation of pharmacokinetics in mice; format: in vivo, C57BL/6 female mice; conditions: mouse, plasma; IV 5 mg/kg, C57BL/6 female mice, mean
Quick reference for AUC(0-t) among some compounds

{"columns": ["Compound", "AUC(0-t) [ng·h/mL]"],
 "data": [
  ["[2H]C1([2H])CC(Nc2nonc2C(=NO)Nc2ccc(F)c(Br)c2)CC([2H])([2H])S1(=O)=O", 2040],
  ["O=S1(=O)CCC(Nc2nonc2C(=NO)Nc2ccc(F)c(Br)c2)CC1 [Compound R, reference compound]", 1120]
]}

---

Some compounds, each annotated with its measured AUC(0-inf).
Assay: Evaluation of pharmacokinetics in mice
Type: in vivo, C57BL/6 female mice
Settings: mouse, plasma; IV 5 mg/kg, C57BL/6 female mice, mean; read-out: AUCINF_obs
Text: Test substance: Compound 1 of the present invention,prepared according to the method of Example 1 or Step 3 of Example 5; Compound R, prepared as described in Example 8. Animal: C57BL/6 female mice […] The concentrations of test substance were used from the analysis results of AB Analyst 1.6.3. Microsoft Excel was used to calculate the parameters such as mean, standard deviation, and coefficient of variation (those directly output from Analyst 1.6.3 were not calculated). […]

{"columns": ["Compound", "AUC(0-inf) (µg·h/mL)"],
 "data": [
  ["[2H]C1([2H])CC(Nc2nonc2C(=NO)Nc2ccc(F)c(Br)c2)CC([2H])([2H])S1(=O)=O [Compound 1]", 2.29],
  ["O=S1(=O)CCC(Nc2nonc2C(=NO)Nc2ccc(F)c(Br)c2)CC1 [Compound R, reference compound]", 1.14]
]}

// data source = patent US20200361919A1
